Target: biotinylated labeled human GPC3 protein (produced in-house) (human, UniProt P51654 25-559, limits assumed, biotinylated (Dojindo, Cat. No. LK03); sites not stated)
Assay: ELISA, biotinylated human GPC3 protein
Overview of reported OD450 at 66.66 nM across a group of binders:
Answer with a number only, understood to be in OD450.

Consider the reported OD450 at 66.66 nM for these binders:
Binder	Measure unit	OD450 at 66.66 nM
hAb003LH2L1a (antibody, human IgG1, V domains shown, Humanized F2.154.1; VH H2 + VL L1a; expressed as human IgG1) VH: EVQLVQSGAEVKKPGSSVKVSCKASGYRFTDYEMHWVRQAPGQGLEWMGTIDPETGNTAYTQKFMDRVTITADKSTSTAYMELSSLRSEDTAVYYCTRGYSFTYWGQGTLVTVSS VL: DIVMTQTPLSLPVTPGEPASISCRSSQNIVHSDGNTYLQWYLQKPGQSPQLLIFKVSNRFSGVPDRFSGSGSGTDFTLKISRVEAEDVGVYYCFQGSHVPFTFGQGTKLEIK	OD450	2.34
hAb006LH1L1a (antibody, human IgG1, V domains shown, Humanized F3.38.7; VH H1 + VL L1a; expressed as human IgG1) VH: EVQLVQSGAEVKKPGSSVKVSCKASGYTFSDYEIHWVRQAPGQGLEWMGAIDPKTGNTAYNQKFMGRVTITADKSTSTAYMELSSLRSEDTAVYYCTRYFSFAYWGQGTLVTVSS VL: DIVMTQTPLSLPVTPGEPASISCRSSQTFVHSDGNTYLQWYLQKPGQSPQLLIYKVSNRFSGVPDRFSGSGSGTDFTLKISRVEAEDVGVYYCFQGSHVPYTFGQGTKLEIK	OD450	2.1
hAb007LH2L1 (antibody, human IgG1, V domains shown, Humanized F3.81.19; VH H2 + VL L1; expressed as human IgG1) VH: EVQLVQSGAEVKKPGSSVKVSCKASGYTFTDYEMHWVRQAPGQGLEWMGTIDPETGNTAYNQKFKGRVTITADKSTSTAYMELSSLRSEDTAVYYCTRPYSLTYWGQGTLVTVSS VL: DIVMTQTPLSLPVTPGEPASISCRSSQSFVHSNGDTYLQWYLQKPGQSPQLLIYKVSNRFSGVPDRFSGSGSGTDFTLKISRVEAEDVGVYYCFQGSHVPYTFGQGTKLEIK	OD450	2.32
hAb006LH1L1b (antibody, human IgG1, V domains shown, Humanized F3.38.7; VH H1 + VL L1b; expressed as human IgG1) VH: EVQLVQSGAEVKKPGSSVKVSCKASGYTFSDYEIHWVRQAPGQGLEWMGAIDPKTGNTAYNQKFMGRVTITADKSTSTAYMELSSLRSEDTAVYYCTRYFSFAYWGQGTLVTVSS VL: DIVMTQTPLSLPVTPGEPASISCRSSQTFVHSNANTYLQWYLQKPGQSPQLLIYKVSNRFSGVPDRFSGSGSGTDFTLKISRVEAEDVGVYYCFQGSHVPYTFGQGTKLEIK	OD450	2.57
hAb005LH1L1b (antibody, human IgG1, V domains shown, Humanized F3.54.12; VH H1 + VL L1b; expressed as human IgG1) VH: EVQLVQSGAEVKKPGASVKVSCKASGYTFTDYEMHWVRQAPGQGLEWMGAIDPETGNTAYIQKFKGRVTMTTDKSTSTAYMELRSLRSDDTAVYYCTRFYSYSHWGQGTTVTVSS VL: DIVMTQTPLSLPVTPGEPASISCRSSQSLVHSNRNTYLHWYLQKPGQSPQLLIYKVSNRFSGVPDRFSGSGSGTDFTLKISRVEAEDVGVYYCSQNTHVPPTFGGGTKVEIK	OD450	1.13

# ---- query binder ----
Incoming: Request the reported OD450 at 66.66 nM associated with hAb007LH2L1b (antibody, human IgG1, V domains shown, Humanized F3.81.19; VH H2 + VL L1b; expressed as human IgG1) VH: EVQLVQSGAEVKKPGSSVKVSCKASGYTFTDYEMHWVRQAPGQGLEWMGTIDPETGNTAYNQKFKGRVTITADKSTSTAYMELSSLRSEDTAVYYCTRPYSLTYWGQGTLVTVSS VL: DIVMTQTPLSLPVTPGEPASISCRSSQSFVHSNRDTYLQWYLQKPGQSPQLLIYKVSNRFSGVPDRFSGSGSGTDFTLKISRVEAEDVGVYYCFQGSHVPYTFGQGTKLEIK
Outgoing: 2.25
